- assay_system: T1, human FLT3 (human, UniProt P36888 27-541, limits assumed)
- T1 construct: Soluble analyte hFLT3 in SPR; also called hFLT3; huFlt3
- T1 sequence: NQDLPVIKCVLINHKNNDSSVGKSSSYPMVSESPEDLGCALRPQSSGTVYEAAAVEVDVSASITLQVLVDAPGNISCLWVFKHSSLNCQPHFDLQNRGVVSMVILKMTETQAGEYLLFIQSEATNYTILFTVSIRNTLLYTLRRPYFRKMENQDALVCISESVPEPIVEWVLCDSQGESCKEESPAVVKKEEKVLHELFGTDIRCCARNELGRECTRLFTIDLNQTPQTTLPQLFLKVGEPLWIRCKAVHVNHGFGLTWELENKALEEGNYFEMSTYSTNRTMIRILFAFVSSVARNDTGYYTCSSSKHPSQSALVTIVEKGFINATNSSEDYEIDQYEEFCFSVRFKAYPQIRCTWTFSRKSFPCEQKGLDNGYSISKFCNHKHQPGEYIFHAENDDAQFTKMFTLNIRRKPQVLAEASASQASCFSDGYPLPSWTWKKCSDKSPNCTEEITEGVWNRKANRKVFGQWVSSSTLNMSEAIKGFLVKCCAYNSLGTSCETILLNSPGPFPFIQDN
- measurement_notes: SPR Biacore T200, 37C; scFv format
Listed here: items and their measured kon.

P14G2 (scFv format) (scFv) scFv: EVQLLESGGGLVQPGGSLRLSCAASGFTFSNYVMNWVRQAPGKGLEWVSAISGSGATTYYADSVKGRFTISRDNSKNTLYLQMNSLRAEDTAVYYCVSGLWAGGIWGQGTLVTVSSGGGGSGGGGSGGGGSDIQMTQSPSSLSASVGDRVTITCRASQSISSYLNWYQQKPGKAPKLLIYDASDLQRGVPSRFSGSGSGTDFTLTISSLQPEDFATYYCQQSYNTPWTFGQGTKVEIK : 93500 M⁻¹ s⁻¹

[Q] // returns reported kon for input P9B5 (scFv format) (scFv, not shown: a dimerising Fc or GST; small tags and cut ends) scFv: EVQLLESGGGLVQPGGSLRLSCAASGFIFASYAMSWVRQAPGKGLEWVSEISSSGGSTTYADSVKGRFTISRDNSKNTLYLQMNSLRAEDTAVYYCARDRVMAGLGYDPFDYWGQGTLVTVSSGGGGSGGGGSGGGGSQSVLTQPPSASGTPGQRVTISCSGSSSNIGSNYVYWYQQLPGTAPKLLIYRNNQRPSGVPDRFSGSKSGTSASLAISGLRSEDEADYYCAAWDDSLSGVVFGGGTKLTVL
[A] 38000 M⁻¹ s⁻¹
